assay: Reduction in PRKAA1 gene expression in human Hep2 cells at 50 ug/ml incubated for 24 hrs by real-time PCR method; format: functional, cell-based; conditions: HEp-2
Active and inactive are the calls of the source. The rule behind the calls is not given here.
The reply should be one of these categories: active, inactive

Cc1cs/c(=N\C(=O)c2cnn(C)c2)n1-c1ccc(I)cc1 | active
Cn1cc(C(=O)NC(=S)Nc2ccccc2Br)cn1 | inactive
Cc1cs/c(=N\C(=O)c2cnn(C)c2)n1-c1ccc(Br)cc1 | active
Cn1cc(C(=O)NC(=S)Nc2ccc(Br)cc2)cn1 | active
Cn1cc(C(=O)NC(=S)Nc2ccccc2I)cn1 | active
Cn1cc(C(=O)NC(=S)Nc2ccc(I)cc2)cn1 | active
Cn1cc(C(=O)/N=C2\SCC(C)(O)N2c2ccc(I)cc2)cn1 (stereo not drawn) | active

Kindly review the next compound as well.
Request: Returns: the outcome recorded for Cn1cc(C(=O)/N=C2\SCC(C)(O)N2c2ccc(Br)cc2)cn1 (stereo not drawn) in this assay.
Result: active
